These measurements were taken from ChEMBL document CHEMBL1961873.

Measured inhibition values are reported for all entries that follow.
target or system: Tyrosine-protein kinase Tec (Homo sapiens)
Sequence (whole entry): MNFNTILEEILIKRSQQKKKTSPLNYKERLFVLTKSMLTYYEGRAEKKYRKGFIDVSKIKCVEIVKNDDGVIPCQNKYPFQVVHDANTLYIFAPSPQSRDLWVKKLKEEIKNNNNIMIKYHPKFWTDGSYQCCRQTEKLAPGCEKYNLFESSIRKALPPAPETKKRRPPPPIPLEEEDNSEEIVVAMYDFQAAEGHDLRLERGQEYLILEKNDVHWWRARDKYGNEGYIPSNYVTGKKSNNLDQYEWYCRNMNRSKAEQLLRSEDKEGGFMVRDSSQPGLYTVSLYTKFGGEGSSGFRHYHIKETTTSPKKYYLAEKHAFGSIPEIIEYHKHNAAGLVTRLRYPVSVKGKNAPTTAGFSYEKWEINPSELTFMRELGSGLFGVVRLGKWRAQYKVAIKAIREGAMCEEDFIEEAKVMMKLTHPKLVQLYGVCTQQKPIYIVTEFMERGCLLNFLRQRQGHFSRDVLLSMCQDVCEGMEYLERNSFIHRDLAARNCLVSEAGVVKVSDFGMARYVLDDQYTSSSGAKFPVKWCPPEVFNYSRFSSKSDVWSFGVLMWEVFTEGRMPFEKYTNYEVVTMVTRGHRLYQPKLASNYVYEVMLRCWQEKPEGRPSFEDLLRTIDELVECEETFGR
experimental parameters: at 0.1 µM
Description: GSK_PKIS: TEC mean inhibition at 0.1 uM [Nanosyn]
reported property: inhibition (%)

structure string: N#Cc1c(NC(=O)CN2CCOCC2)sc2c1CCCC2
target or system: Tyrosine-protein kinase Tec (Homo sapiens)
measurement units: %
observed measurement: 3.74

structure string: COC(=O)Nc1nc2ccc(S(=O)(=O)c3ccc(NC(=O)Nc4cc(C(F)(F)F)ccc4F)cc3)cc2[nH]1
target or system: Tyrosine-protein kinase Tec (Homo sapiens)
measurement units: %
observed measurement: 3.65

structure string: CN1CCC(n2cnc(-c3ccc(F)cc3)c2-c2ccnc(Nc3ccccc3)n2)CC1
target or system: Tyrosine-protein kinase Tec (Homo sapiens)
measurement units: %
observed measurement: 3.59

structure string: CCCN(CCS(C)(=O)=O)Cc1ccc(-c2ccc3ncnc(Nc4ccc(OCc5cccc(F)c5)c(Cl)c4)c3c2)o1
target or system: Tyrosine-protein kinase Tec (Homo sapiens)
measurement units: %
observed measurement: 2.93

structure string: COc1ccc(-c2cc(-c3c[nH]nc3-c3ccccn3)ccn2)cc1
target or system: Tyrosine-protein kinase Tec (Homo sapiens)
measurement units: %
observed measurement: 4.44

structure string: CN1CCC(n2cnc(-c3ccc(F)cc3)c2-c2ccnc(N)n2)CC1
target or system: Tyrosine-protein kinase Tec (Homo sapiens)
measurement units: %
observed measurement: 3.52

structure string: COc1cc2c(cc1Nc1nc(Nc3ccsc3C(N)=O)c3cc[nH]c3n1)N(C(=O)CN(C)C)CCC2(C)C
target or system: Tyrosine-protein kinase Tec (Homo sapiens)
measurement units: %
observed measurement: 5.38

structure string: CC(C)(CO)CNC(=O)c1ccc2c(c1)/C(=N/Nc1ccc(S(N)(=O)=O)cc1)C(=O)N2
target or system: Tyrosine-protein kinase Tec (Homo sapiens)
measurement units: %
observed measurement: 0.59

structure string: CCCN1CCC(c2ccc(Nc3nc(Nc4cc(F)ccc4C(N)=O)c4cc[nH]c4n3)c(OC)c2)CC1
target or system: Tyrosine-protein kinase Tec (Homo sapiens)
measurement units: %
observed measurement: 2.15

structure string: CCn1c(-c2nonc2N)nc2c(C#CC(C)(C)O)ncc(OC3CCNCC3)c21
target or system: Tyrosine-protein kinase Tec (Homo sapiens)
measurement units: %
observed measurement: 5.92

structure string: Clc1ccc(-c2nn3ncccc3c2-c2ccnc(Nc3ccccc3)n2)cc1
target or system: Tyrosine-protein kinase Tec (Homo sapiens)
measurement units: %
observed measurement: 2.78

structure string: CN(C)CCOc1ccc(-c2nc(-c3ccncc3)c(-c3ccc4c(c3)CC/C4=N\O)[nH]2)cc1
target or system: Tyrosine-protein kinase Tec (Homo sapiens)
measurement units: %
observed measurement: 4.78

structure string: FC(F)(F)c1cccc(-c2nn3ncccc3c2-c2ccnc(Nc3ccc4c(c3)OCCO4)n2)c1
target or system: Tyrosine-protein kinase Tec (Homo sapiens)
measurement units: %
observed measurement: 4.21

structure string: O=C(Nc1n[nH]c2cc(-c3ccc(F)cc3)ccc12)C1CC1
target or system: Tyrosine-protein kinase Tec (Homo sapiens)
measurement units: %
observed measurement: 3.06

structure string: CS(=O)(=O)CCNCc1coc(-c2ccc3ncnc(Nc4ccc(OCc5ccccc5)cc4)c3c2)c1
target or system: Tyrosine-protein kinase Tec (Homo sapiens)
measurement units: %
observed measurement: 4.07

structure string: COC(=O)c1sc(-n2cnc3cc(OC)c(OC)cc32)cc1OCc1ccccc1C(F)(F)F
target or system: Tyrosine-protein kinase Tec (Homo sapiens)
measurement units: %
observed measurement: 3.18

###

Each item that follows carries a reported inhibition.
target or system: Cyclin-dependent kinase 2 (Homo sapiens);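 also: mean inhibition measured against the CDK2/cyclin E complex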
experimental parameters: at 1 µM
reported property: inhibition (%)

structure string: CCn1cc(-c2ccnc3[nH]ccc23)c(-c2cccc(NC(=O)Nc3ccc(OCc4ccccc4)cc3)c2)n1
observed measurement: -2.22
--
structure string: Cc1ccc2c(-c3ccnc(Nc4ccccc4)n3)c(-c3ccc(F)cc3)nn2n1
observed measurement: 5.57
--
structure string: Fc1ccc(-c2cc(-c3c[nH]nc3-c3ccccn3)ccn2)cc1
observed measurement: 3.29

###

target or system: Serine/threonine-protein kinase BRSK1 (Homo sapiens) (UniProt Q8TDC3)
Sequence (Q8TDC3 whole entry): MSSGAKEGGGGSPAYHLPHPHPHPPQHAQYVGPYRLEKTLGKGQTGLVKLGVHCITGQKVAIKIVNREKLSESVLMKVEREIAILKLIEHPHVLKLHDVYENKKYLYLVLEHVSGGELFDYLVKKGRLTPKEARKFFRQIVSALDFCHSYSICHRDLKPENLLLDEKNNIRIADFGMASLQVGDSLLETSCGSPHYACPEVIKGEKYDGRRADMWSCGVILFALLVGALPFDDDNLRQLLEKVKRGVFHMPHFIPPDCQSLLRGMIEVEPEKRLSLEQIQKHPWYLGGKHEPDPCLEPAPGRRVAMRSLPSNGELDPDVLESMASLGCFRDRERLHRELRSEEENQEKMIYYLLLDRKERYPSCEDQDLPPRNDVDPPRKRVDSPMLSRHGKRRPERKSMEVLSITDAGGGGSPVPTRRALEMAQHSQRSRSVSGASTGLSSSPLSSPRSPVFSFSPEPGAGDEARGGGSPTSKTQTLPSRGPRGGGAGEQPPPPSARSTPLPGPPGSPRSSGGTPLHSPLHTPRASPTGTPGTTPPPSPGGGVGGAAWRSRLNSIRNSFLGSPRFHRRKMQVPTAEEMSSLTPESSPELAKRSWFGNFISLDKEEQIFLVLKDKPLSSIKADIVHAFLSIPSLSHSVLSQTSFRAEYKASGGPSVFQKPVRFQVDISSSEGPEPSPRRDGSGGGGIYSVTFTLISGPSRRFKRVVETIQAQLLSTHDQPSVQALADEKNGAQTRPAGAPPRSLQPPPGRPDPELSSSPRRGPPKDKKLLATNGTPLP
experimental parameters: at 0.1 µM
Description: GSK_PKIS: BRSK1 mean inhibition at 0.1 uM [Nanosyn]
// inhibition lookup, one value per entry

structure string: CNC(=O)c1cc(-c2ccc(F)cc2)cc(-c2ccc(S(=O)(=O)N3CCCC3)cc2)c1N
measurement units: %
inhibition: 1.39

structure string: CCn1c(-c2nonc2N)nc2ccccc21
measurement units: %
inhibition: 2.54

structure string: CC(C)(CO)CNC(=O)c1ccc2c(c1)/C(=N/Nc1ccc(S(N)(=O)=O)cc1)C(=O)N2
measurement units: %
inhibition: 6.46

structure string: CCN(CC)S(=O)(=O)c1ccc(OC)c(Nc2ncc(-c3ccccc3)o2)c1
measurement units: %
inhibition: -0.07

structure string: COc1ccc(-c2oc3ncnc(N)c3c2-c2ccc(NC(=O)Nc3cc(C(F)(F)F)ccc3F)cc2)cc1
measurement units: %
inhibition: 5.38

###

target or system: Phosphatidylinositol 4,5-bisphosphate 3-kinase catalytic subunit alpha isoform (Homo sapiens) (UniProt P42336);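 also: values are mean percent inhibition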
Sequence (P42336 whole entry, canonical isoform): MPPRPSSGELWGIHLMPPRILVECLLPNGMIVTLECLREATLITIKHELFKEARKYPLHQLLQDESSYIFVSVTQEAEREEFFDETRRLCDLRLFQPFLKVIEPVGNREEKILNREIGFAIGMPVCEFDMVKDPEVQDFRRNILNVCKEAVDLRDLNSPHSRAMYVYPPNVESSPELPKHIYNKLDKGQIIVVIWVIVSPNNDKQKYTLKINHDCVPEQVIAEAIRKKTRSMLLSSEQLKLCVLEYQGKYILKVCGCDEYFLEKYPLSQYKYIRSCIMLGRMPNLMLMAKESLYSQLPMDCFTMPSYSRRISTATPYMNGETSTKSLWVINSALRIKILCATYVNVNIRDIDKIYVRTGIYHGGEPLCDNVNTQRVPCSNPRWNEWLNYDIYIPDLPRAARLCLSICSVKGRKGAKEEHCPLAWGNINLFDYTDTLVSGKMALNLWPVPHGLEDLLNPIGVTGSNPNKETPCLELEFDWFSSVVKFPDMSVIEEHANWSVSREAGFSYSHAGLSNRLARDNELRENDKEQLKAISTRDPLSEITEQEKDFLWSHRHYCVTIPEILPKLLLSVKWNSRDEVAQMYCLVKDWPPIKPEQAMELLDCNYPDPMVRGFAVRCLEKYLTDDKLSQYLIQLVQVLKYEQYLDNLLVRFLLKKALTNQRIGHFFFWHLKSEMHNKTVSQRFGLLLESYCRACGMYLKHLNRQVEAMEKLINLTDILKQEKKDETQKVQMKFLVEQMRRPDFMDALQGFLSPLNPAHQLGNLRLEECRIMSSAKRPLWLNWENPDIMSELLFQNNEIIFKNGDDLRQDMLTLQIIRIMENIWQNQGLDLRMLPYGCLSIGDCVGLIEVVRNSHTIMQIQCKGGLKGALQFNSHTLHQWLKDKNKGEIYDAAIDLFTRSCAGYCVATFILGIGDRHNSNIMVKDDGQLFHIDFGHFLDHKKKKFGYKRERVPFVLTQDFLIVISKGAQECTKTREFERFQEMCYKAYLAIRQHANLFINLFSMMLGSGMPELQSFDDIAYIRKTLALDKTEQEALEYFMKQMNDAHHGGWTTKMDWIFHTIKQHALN
experimental parameters: at 1 µM
Quick rule: inhibition of at least 3% means Fulfilled, below that means Not fulfilled.

structure string: CCn1cc(-c2ccnc3[nH]ccc23)c(-c2cccc(NC(=O)Nc3ccc(OCc4ccccc4)cc3)c2)n1
assigned class: Not fulfilled
//
structure string: COC(=O)Nc1nc2ccc(S(=O)(=O)c3ccc(NC(=O)Nc4cc(C(F)(F)F)ccc4F)cc3)cc2[nH]1
assigned class: Not fulfilled
//
structure string: CCn1c(-c2nonc2N)nc2c(C#CC(C)(C)O)ncc(OC3CCNCC3)c21
assigned class: Not fulfilled
//
structure string: Clc1ccc(-c2nn3ncccc3c2-c2ccnc(Nc3ccccc3)n2)cc1
assigned class: Fulfilled
//
structure string: COc1ccc(-c2cc(-c3c[nH]nc3-c3ccccn3)ccn2)cc1
assigned class: Not fulfilled

###

Reported inhibition values for a set of compounds
target or system: Cyclin-dependent kinase 5 (Homo sapiens)
experimental parameters: at 0.1 µM

structure string: CCn1c(-c2nonc2N)nc2c(C#CC(C)(C)O)nc(OC[C@H](N)c3ccccc3)cc21
inhibition / %: 1.23
//
structure string: c1ccc(-c2nc3n(c2-c2ccc4c(c2)OCO4)CCC3)nc1
inhibition / %: 0.64
//
structure string: COc1ccc(-c2oc3ncnc(N)c3c2-c2ccc(NC(=O)Nc3cc(C(F)(F)F)ccc3F)cc2)cc1
inhibition / %: 1.02
//
structure string: CCc1nn2ncccc2c1-c1ccnc(NC2CC2)n1
inhibition / %: 0.79
//
structure string: CN(C)CCOc1ccc(-c2nc(-c3ccncc3)c(-c3ccc4c(c3)CC/C4=N\O)[nH]2)cc1
inhibition / %: 2.41

###

The following compounds are listed with their measured inhibition values.
target or system: Casein kinase I isoform gamma-3 (Homo sapiens) (UniProt Q9Y6M4);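 also: reported value is the mean percent inhibition of the kinase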
Sequence (Q9Y6M4 whole entry, looked up, canonical isoform): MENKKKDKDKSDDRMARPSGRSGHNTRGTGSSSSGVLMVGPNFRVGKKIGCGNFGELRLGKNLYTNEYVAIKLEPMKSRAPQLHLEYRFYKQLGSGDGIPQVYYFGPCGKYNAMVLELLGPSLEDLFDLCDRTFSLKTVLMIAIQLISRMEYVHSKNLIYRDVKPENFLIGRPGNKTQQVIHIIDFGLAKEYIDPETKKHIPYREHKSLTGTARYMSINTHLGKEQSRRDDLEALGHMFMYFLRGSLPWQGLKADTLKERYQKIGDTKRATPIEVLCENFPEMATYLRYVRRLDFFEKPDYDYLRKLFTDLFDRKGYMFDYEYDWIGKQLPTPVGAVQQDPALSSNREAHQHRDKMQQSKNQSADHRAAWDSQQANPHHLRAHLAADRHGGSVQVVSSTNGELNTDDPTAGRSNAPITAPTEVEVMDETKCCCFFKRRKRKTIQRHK
experimental parameters: at 0.1 µM

structure string: [O-][S+]1CCN(Cc2ccc(-c3ccc4ncnc(Nc5ccc(OCc6cccc(F)c6)c(Cl)c5)c4c3)o2)CC1
inhibition [%]: 4.15

structure string: COc1ccc(-c2cc3c(N)ncnc3o2)cc1
inhibition [%]: -0.97

structure string: COc1ccc(-c2nn3ncccc3c2-c2ccnc(Nc3ccc4c(c3)OCCO4)n2)cc1
inhibition [%]: 0.17

structure string: Fc1ccc(-c2nn3ncccc3c2-c2ccnc(Nc3ccc4c(c3)OCCO4)n2)cc1
inhibition [%]: 23.9

structure string: c1cc(-c2cnn3nc(N4CCOCC4)ccc23)nc(NC2CC2)n1
inhibition [%]: 2.89

###

target or system: Fibroblast growth factor receptor 3 (Homo sapiens) (UniProt P22607);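 also: each value is a mean percent inhibition of FGFR3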
Sequence (P22607 23-806 limits assumed): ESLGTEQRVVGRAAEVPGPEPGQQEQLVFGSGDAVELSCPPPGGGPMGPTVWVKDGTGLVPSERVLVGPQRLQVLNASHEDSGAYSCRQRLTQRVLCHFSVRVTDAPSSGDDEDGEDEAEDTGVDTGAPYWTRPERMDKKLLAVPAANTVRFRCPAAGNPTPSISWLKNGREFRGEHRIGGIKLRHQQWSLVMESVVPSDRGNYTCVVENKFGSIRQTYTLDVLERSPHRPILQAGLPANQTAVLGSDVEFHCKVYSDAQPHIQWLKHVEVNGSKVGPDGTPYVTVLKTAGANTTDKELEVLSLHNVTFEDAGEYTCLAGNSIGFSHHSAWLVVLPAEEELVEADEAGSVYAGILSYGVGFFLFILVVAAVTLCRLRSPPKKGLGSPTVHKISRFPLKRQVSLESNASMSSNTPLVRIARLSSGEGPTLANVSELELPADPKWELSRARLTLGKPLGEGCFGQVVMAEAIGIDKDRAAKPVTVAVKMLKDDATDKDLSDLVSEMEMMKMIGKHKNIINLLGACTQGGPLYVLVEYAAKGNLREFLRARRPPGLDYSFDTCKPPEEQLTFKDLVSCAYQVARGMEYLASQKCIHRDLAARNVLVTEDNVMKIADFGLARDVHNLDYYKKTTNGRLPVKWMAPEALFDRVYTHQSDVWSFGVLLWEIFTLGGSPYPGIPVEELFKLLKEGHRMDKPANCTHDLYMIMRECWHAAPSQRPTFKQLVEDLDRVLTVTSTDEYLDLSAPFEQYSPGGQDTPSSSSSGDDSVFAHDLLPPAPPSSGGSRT
experimental parameters: at 0.1 µM
reported property: inhibition (%)

structure string: Nc1nc(-c2ccc(F)cc2)c(-c2ccc3ncccc3n2)s1
measurement units: %
observed measurement: 8.15
//
structure string: CCn1c(-c2nonc2N)nc2c(C#CC(C)(C)O)nc(OC[C@H](N)c3ccccc3)cc21
measurement units: %
observed measurement: 9.04
//
structure string: COc1ccc(CNC(=O)c2ccc(-c3cc(-c4nnc(C)o4)ccc3C)cc2)cc1
measurement units: %
observed measurement: 2.91
//
structure string: CN(C)CCOc1ccc(-c2nc(-c3ccncc3)c(-c3ccc4c(c3)CC/C4=N\O)[nH]2)cc1
measurement units: %
observed measurement: 5.89
//
structure string: COc1cc(Nc2nccc(Nc3ccc4c(C)n[nH]c4c3)n2)cc(OC)c1OC
measurement units: %
observed measurement: 8.22
//
structure string: c1ccc(COc2ccc(Nc3ncnc4ccc(-c5ccco5)cc34)cc2)cc1
measurement units: %
observed measurement: 2.01
//
structure string: O=C(Nc1n[nH]c2cc(-c3ccc(F)cc3)ccc12)C1CC1
measurement units: %
observed measurement: 4.83
//
structure string: COC(=O)Nc1nc2ccc(Oc3ccc(NC(=O)Nc4cccc(Cl)c4)cc3)cc2[nH]1
measurement units: %
observed measurement: 2.97
//
structure string: COc1ccc2[nH]c3c4[nH]c5ccc(OC)cc5c4c4c(c3c2c1)C(=O)NC4=O
measurement units: %
observed measurement: 7.7
//
structure string: Cc1ccc2c(-c3ccnc(Nc4ccccc4)n3)c(-c3ccc(F)cc3)nn2n1
measurement units: %
observed measurement: 6.27
